Hi there, I'd appreciate the recorded solubility change mitosis (log2) for every entry that follows.
test system: HeLa Kyoto; assay: solubility change mitosis vs G1/S (difference of NP-40 vs SDS log2 ratios) (log2 ratio difference); higher = more soluble in mitosis
Number, no unit, nothing else.

Indicate the recorded solubility change mitosis (log2) value for this sequence: MASADSRRVADGGGAGGTFQPYLDTLRQELQQTDPTLLSVVVAVLAVLLTLVFWKLIRSRRSSQRAVLLVGLCDSGKTLLFVRLLTGLYRDTQTSITDSCAVYRVNNNRGNSLTLIDLPGHESLRLQFLERFKSSARAIVFVVDSAAFQREVKDVAEFLYQVLIDSMGLKNTPSFLIACNKQDIAMAKSAKLIQQQLEKELNTLRVTRSAAPSTLDSSSTAPAQLGKKGKEFEFSQLPLKVEFLECSAKGGRGDVGSADIQDLEKWLAKIA [SRPRB]
-0.0359

Query solubility change mitosis (log2) for MRHLPYFCRGQVVRGFGRGSKQLGIPTANFPEQVVDNLPADISTGIYYGWASVGSGDVHKMVVSIGWNPYYKNTKKSMETHIMHTFKEDFYGEILNVAIVGYLRPEKNFDSLESLISAIQGDIEEAKKRLELPEHLKIKEDNFFQVSKSKIMNGH [RFK]
-0.114

====

tested on: HeLa Kyoto; experiment: solubility in G1/S (NP-40 vs SDS abundance) (log2 ratio); higher = more soluble; conditions: cell cycle stage: G1/S
Provide the recorded solubility in G1/S (log2) for the entries that follow.

Send back HeLa Kyoto solubility in G1/S (log2) of MAVELGVLLVRPRPGTGLGRVMRTLLLVLWLATRGSALYFHIGETEKKCFIEEIPDETMVIGNYRTQLYDKQREEYQPATPGLGMFVEVKDPEDKVILARQYGSEGRFTFTSHTPGEHQICLHSNSTKFSLFAGGMLRVHLDIQVGEHANDYAEIAAKDKLSELQLRVRQLVEQVEQIQKEQNYQRWREERFRQTSESTNQRVLWWSILQTLILVAIGVWQMRHLKSFFEAKKLV [TMED9] only.
0.375

Give solubility in G1/S (log2) only, for MPLLVEGRRVRLPQSAGDLVRAHPPLEERARLLRGQSVQQVGPQGLLYVQQRELAVTSPKDGSISILGSDDATTCHIVVLRHTGNGATCLTHCDGTDTKAEVPLIMNSIKSFSDHAQCGRLEVHLVGGFSDDRQLSQKLTHQLLSEFDRQEDDIHLVTLCVTELNDREENENHFPVIYGIAVNIKTAEIYRASFQDRGPEEQLRAARTLAGGPMISIYDAETEQLRIGPYSWTPFPHVDFWLHQDDKQILENLSTSPLAEPPHFVEHIRSTLMFLKKHPSPAHTLFSGNKALLYKKNEDGLWEKISSPGS [NTAN1] , using HeLa Kyoto data.
-0.142

Fill in solubility in G1/S (log2) for MAPGEVTITVRLIRSFEHRNFKPVVYHGVNLDQTVKEFIVFLKQDIPLRTNLPPPFRNYKYDALKIIHQAHKSKTNELVLSLEDDERLLLKEDSTLKAAGIASETEIAFFCEEDYKNYKANPISSW [C2ORF76] tested with HeLa Kyoto.
-0.239

====

system: HeLa Kyoto; test: thermal stability score vs G1/S (z-score of summed log2 fold changes over temperatures); higher = more thermally stable than in G1/S; conditions: cell cycle stage: early G1 (4.5 h after nocodazole release)
Property name: thermal stability score
I only need the number, thanks.

Check the records and state thermal stability score for MAILFAVVARGTTILAKHAWCGGNFLEVTEQILAKIPSENNKLTYSHGNYLFHYICQDRIVYLCITDDDFERSRAFNFLNEIKKRFQTTYGSRAQTALPYAMNSEFSSVLAAQLKHHSENKGLDKVMETQAQVDELKGIMVRNIDLVAQRGERLELLIDKTENLVDSSVTFKTTSRNLARAMCMKNLKLTIIIIIVSIVFIYIIVSPLCGGFTWPSCVKK [VAMP7]
1.62

Name the recorded thermal stability score of the sequence listed here: MAASGESGTSGGGGSTEEAFMTFYSEVKQIEKRDSVLTSKNQIERLTRPGSSYFNLNPFEVLQIDPEVTDEEIKKRFRQLSILVHPDKNQDDADRAQKAFEAVDKAYKLLLDQEQKKRALDVIQAGKEYVEHTVKERKKQLKKEGKPTIVEEDDPELFKQAVYKQTMKLFAELEIKRKEREAKEMHERKRQREEEIEAQEKAKREREWQKNFEESRDGRVDSWRNFQANTKGKKEKKNRTFLRPPKVKMEQRE [DNAJC8]
1.39

Report thermal stability score for MTRHGKNCTAGAVYTYHEKKKDTAASGYGTQNIRLSRDAVKDFDCCCLSLQPCHDPVVTPDGYLYEREAILEYILHQKKEIARQMKAYEKQRGTRREEQKELQRAASQDHVRGFLEKESAIVSRPLNPFTAKALSGTSPDDVQPGPSVGPPSKDKDKVLPSFWIPSLTPEAKATKLEKPSRTVTCPMSGKPLRMSDLTPVHFTPLDSSVDRVGLITRSERYVCAVTRDSLSNATPCAVLRPSGAVVTLECVEKLIRKDMVDPVTGDKLTDRDIIVLQRGGTGFAGSGVKLQAEKSRPVMQA [NOSIP]
4.16
